Source of measurements: ChEMBL document CHEMBL1201861

- Tested on: KM12;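 note: KM12 cell growth inhibition, read out with a cell viability assay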
- measurement-notes: cells
- Assay type: functional, cell-based, Homo sapiens
- test-conditions: Homo sapiens, KM12
- Description: SANGER: Inhibition of human KM12 cell growth in a cell viability assay.
experimental-readout: pIC50
Numbers only, as −log10 of the molar value.

1. C=CCNC1=C2C[C@@H](C)C[C@H](OC)[C@H](O)[C@@H](C)/C=C(\C)[C@H](OC(N)=O)[C@@H](OC)/C=C\C=C(/C)C(=O)NC(=CC1=O)C2=O [TANESPIMYCIN]: 7.20

Report pIC50 for every entry below.
1. COc1ccc(-c2ccc3c(N4CCOC[C@@H]4C)nc(N4CCOC[C@@H]4C)nc3n2)cc1CO [AZD-8055]
2. COc1cc([C@@H]2c3cc4c(cc3[C@@H](O[C@@H]3O[C@@H]5CO[C@@H](C)O[C@H]5[C@H](O)[C@H]3O)[C@H]3COC(=O)[C@H]23)OCO4)cc(OC)c1O [ETOPOSIDE]

5.75
5.73

Report pIC50 for every entry below.
1. CN(c1ncccc1CNc1nc(Nc2ccc3c(c2)CC(=O)N3)ncc1C(F)(F)F)S(C)(=O)=O [PF-00562271]
2. COC(=O)CNC(=O)C(=O)OC
3. CNC(=O)c1cc(Oc2ccc(NC(=O)Nc3ccc(Cl)c(C(F)(F)F)c3)cc2)ccn1 [SORAFENIB]

1: 6.41; 2: 2.65; 3: 5.99

----------
- System: PSN1;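 note: suppression of growth of human PSN1 cells, read out by a cell viability assay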
- measurement-notes: cells
- Assay type: functional, cell-based, Homo sapiens
- test-conditions: psn1
- Description: SANGER: Inhibition of human PSN1 cell growth in a cell viability assay.
pIC50: −log10 of the molar value.
experimental-readout: pIC50

response.value for `Cc1cc([C@@H](C)Nc2ccccc2C(=O)O)c2nc(N3CCOCC3)cc(=O)n2c1` (field: pIC50) = < 5.29

----------
- System: A-431;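 note: growth inhibition of A-431 cells, determined with a cell viability read-out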
- measurement-notes: cells
- Type: functional, cell-based, Homo sapiens
- test-conditions: Homo sapiens, A-431
- Description: SANGER: Inhibition of human A431 cell growth in a cell viability assay.
pIC50: −log10 of the molar value.
experimental-readout: pIC50

Worked examples follow.
1. O=C1N=C(NCc2cccs2)S/C1=C\c1ccc2ncccc2c1: < 5.30
2. O=C(NOCC1CC1)c1ccc(F)c(F)c1Nc1ccc(I)cc1Cl: 5.20
3. CCOc1nc(NC(=O)Cc2cc(OC)ccc2OC)cc(N)c1C#N: < 5.00
4. Cn1cncc1[C@@](N)(c1ccc(Cl)cc1)c1ccc2c(c1)c(-c1cccc(Cl)c1)cc(=O)n2C: 6.18
5. CN(Cc1cnc2nc(N)nc(N)c2n1)c1ccc(C(=O)N[C@@H](CCC(=O)O)C(=O)O)cc1 [METHOTREXATE]: < 6.70

Report pIC50 for every entry below.
1. Cn1cc(C2=C(c3ccc(Cl)cc3Cl)C(=O)NC2=O)c2ccccc21
2. Cc1cnc(-c2cnc(NCCNc3ccc(C#N)cn3)nc2-c2ccc(Cl)cc2Cl)[nH]1
3. Nc1ccn([C@@H]2O[C@H](CO)[C@@H](O)[C@@H]2O)c(=O)n1
4. CCC1=C[C@@H]2CN(C1)Cc1c([nH]c3ccccc13)[C@@](C(=O)OC)(c1cc3c(cc1OC)N(C)[C@H]1[C@@](O)(C(=O)OC)[C@H](OC(C)=O)[C@]4(CC)C=CCN5CC[C@]31[C@@H]54)C2

1: < 5.00; 2: < 5.59; 3: < 5.70; 4: 8.54

----------
For each record, write down the corresponding IC50.
- System: SNU-475
- measurement-notes: cells
- Format: functional, cell-based
- test-conditions: Homo sapiens
- Description: SANGER: Inhibition of human SNU-475 cell growth in a cell viability assay.

Worked examples follow.
1. COc1cc([C@@H]2c3cc4c(cc3[C@@H](O[C@@H]3O[C@@H]5CO[C@@H](C)O[C@H]5[C@H](O)[C@H]3O)[C@H]3COC(=O)[C@H]23)OCO4)cc(OC)c1O [ETOPOSIDE]: > 16 µM
2. Cn1cncc1[C@@](N)(c1ccc(Cl)cc1)c1ccc2c(c1)c(-c1cccc(Cl)c1)cc(=O)n2C: > 16 µM
3. Cc1cc([C@@H](C)Nc2ccccc2C(=O)O)c2nc(N3CCOCC3)cc(=O)n2c1: > 5.12 µM

Below: the item to evaluate.
response.value for `Cc1cnc(-c2cnc(NCCNc3ccc(C#N)cn3)nc2-c2ccc(Cl)cc2Cl)[nH]1` (field: IC50) = > 2.56 µM
